# test: protease stability score; higher = more stable; yeast display proteolysis, trypsin and chymotrypsin;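 note: log10 excess protease needed over predicted unfolded state with 0 meaning unfolded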

{"sequenceEntry": "DETKLMTELAEKLNRVIQKNNPDEARKLMDPNARQQVGDTRYHGNEQLAEYMKDMHERYDHVEVDVKDVNVSGDHATLEAKVHFRHNGKNTTINQNIVATIHNGKVVLKQVTSK", "protease stability score": 0.465}
{"sequenceEntry": "DETAVEIARDFLQAITNNNPQEAERLADPNVRWTVGDKSYSGMNEFSKIIKDLNDRSRFEYTDVKLDVTNGRARIELRMSRTVNGKPQSFDMVMNVVVHNGRIKHVHVHNKQ", "protease stability score": 1.4}
{"sequenceEntry": "DETKQQELIHRLLEALETGNPDEYIKNLDKDVRVVVGDTEVHGREDLKKLFERLTHQIDHQHIKDYKVSNGQADVKLVVVNNGQERRLTIKIVVRNGHVKEVVWNDR", "protease stability score": 1.77}
{"sequenceEntry": "DEEDVKKILDKVLKMAVKGDKDQVKTMLKPDVEYIHIDEKRQGQQVAEQVHKEIKKVGARAEIKEKTVEGDKAKVTYQFKVNGRTVEVTAEVEAKDGRVDKWQVHISDEAKEMMTKG", "protease stability score": -0.289}
{"sequenceEntry": "DEHKVKEIEDIVRNNDFLKLANMADENARVRYGDKDFHGRERIKTQAQRFETKFDHAEIKSLDVRGNEISVDMVAVFNGRSVRFRMILVVKNGQIKMMEFRATSEKEETKLKEALS", "protease stability score": 1.25}
{"sequenceEntry": "DQHEQQKLAENVQKVLRKGDESRFQRLVDPNAKMTYGDKSLTGHERFRKWMQEFRHHADHVEFKEVSIHNGKLNMHAVIDVNGHKQTFVMHFQFHNGTVQHVEQTQT", "protease stability score": 0.289}

###

# test: protease stability score; higher = more stable; yeast display proteolysis, trypsin and chymotrypsin;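 note: log10 excess protease needed over predicted unfolded state with 0 meaning unfolded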
Entries and their measured protease stability score follow.

{"sequenceEntry": "DEEKNETAKQLQRIEETGNKDEVQEMLDKDADIHIGDKVVHGREEYARQVHRRRDEINVQIDEVHYKDEEGSVVVRYTAMQEVNGRPIKNSFQRVQHIDNGRVKHMHFKFSEEQERQMRG", "protease stability score": -0.055}
{"sequenceEntry": "DEKEAEHVSRLVRENDFQTLRDQADKDARVRIGDREVHGRERLRSQLHKLERRIDSLEVHRVNNHPNHFHVDVVITVNGQKVTFRLNIHVHNGRIKSIEIEFTDEDQKRNMNEVFS", "protease stability score": -0.081}
{"sequenceEntry": "DEEQVQKVVDKLIKAVQNGNRKQIVDLVKENVEFTLADETYKGKDDVQTVIKRLHEVGAEVHVDRYDVRGDTAHADTRWHMDDQEMHVTVEYVVRGDRVEQVHVQWSEEAKKVHKKG", "protease stability score": -0.044}
{"sequenceEntry": "DQEEAERVVKRAIKALENGNSKELKDLGKEGVEYEFGDKKIHGPDALVKQFRTLQKKGVEMEFKEHHVEGDEAHTKVRYRNGDKENEATITATVKGGRIDRVQVNVPETIRKIVKHG", "protease stability score": -0.076}
{"sequenceEntry": "EEKNQEHAEQVFRAYKDGDPNQIQRLLDPNAHARIGDKQLHGREQAREIMHRLRRHLQMDLKLQDVKAEGDKLQLNARAKHDDNGRPNDVKITITFDLQNGRIKSMSVKMSG", "protease stability score": 0.022}
{"sequenceEntry": "DETEEVQKLVHRWRQAMEDGNPDDLRKNMDEDAEMRYGDKSWHGRENIAQNLHKERQRADSISITIEDMDHENGKAVVHLNITFTVNGRKETKRYDLDVEVNGDKLKIKQIQQE", "protease stability score": 0.247}
{"sequenceEntry": "DEEQVEHAMNRLVQALRSGDEKKLLDLAPEDVKMRIGDREFHGREDFEKAVKEFVDRVDHFQFEDVSIRGDDIFIHVWNQVNGRRHKQVITVKAHNGRMKHMVLDTP", "protease stability score": 0.983}
{"sequenceEntry": "DSEKDKDWLRKLQSAVERNDPDSVMRLLDPNAEANYGDQTLHGREHIRKMFSELLKHADHVEVTDVRAHNGRLQLDVIMTINGRKSRYDLQFQFSNGRVKKVSVHSR", "protease stability score": 1.26}
{"sequenceEntry": "DEHNVRLAERLLHAIDTNDPKRVKEQVDKDVEYEVGDKRVHGRDDYIKQVETEIRQMSIHIQSMDIHSNGDKVNVRVTYTFTVDGRPQEDTVDYEVQFDNGKVRTVRNRFSEEQEERQKK", "protease stability score": -0.245}
{"sequenceEntry": "DEETTDILNELLRAYQNNDSKRIVELADPNASANIGDKQYHGMEDAARTQVKRMRQIHVEIKHVSSDNQGEKIELEMRFVDNHNGKPEQSTRNMTVVMKNGKVDKFTIRDDG", "protease stability score": 0.085}
{"sequenceEntry": "DEENLNQLKKFWHALQTNNPDQARKLADPNVRLHVGDKSVNGREEMVKRLVDKMHEMEIDYKVRDMHAHNGHIKVEAERVIHDNGQPRRATYEIRVIIKNGRIKEIQIHERQ", "protease stability score": 1.07}
